OD450 nm values, listed per item
TARGET OR TEST SYSTEM: T1, human GPC3-His protein (human, UniProt P51654 25-559)
T1 construct: Bought protein; also called human GPC3 protein; not shown: His tag
MEASUREMENT PROTOCOL: ELISA, coated human GPC3, antibody 100 nM;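 further: antibodies bound to antigen-coated 96-well plates (1 µg/mL), 2 h at 37 °C, detected with HRP-labelled secondary antibody and TMB substrate, absorbance read at 450 nm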
Only the number, expressed in OD450, is required.

For orientation, consider the following solved cases.
{"BINDER": "F1.92.17 human-murine chimeric antibody (antibody, human IgG1, kappa, V domains shown) VH: EVQLQQSGPELVKPGASVKMSCKASGYTFTDYNMHWVRQSHGKSLEWIGYINPNNGDTIYNQNFKGKATLTVNKSSSTAYMELRSLTSEDSAVYYCSRTITYYYSMDYWGPGTSVTVSS VL: QIVLTQSPALMSASPGEKVTMTCSASSSVSYMYWYQQKPRSSPKPWIYLTSNLASGVPARFSGSGSGTSYSLTISSMEAEDAATYYCQQWSSNPLTFGAGTKLELKR", "REPORTED VALUE": 0.66}
{"BINDER": "F1.115.8 human-murine chimeric antibody (antibody, human IgG1, kappa, V domains shown) VH: EVQLQQSGPELVKPGASVKMSCKASGYTFTEYYMHWVKQSHGKSLEWIGYIYPNNGGNGYNQKFKGKATLTVDKSSSTAYMGLRSLTSEDSAVYYCVRGYYSNWYFDVWGTGTTVTVSS VL: DVLMTQTPLSLPVSLGDQASISCRSSQSIVHSNGKTYLEWYLQKPGQSPKLLIYKVSNRFSGVPDRFSGSGSGTDFTLKISRVEAEDLGVYYCFQGSHVPFTFGSGTKLEIKR", "REPORTED VALUE": 2.01}

The recorded OD450 nm for entry F1.73.9 human-murine chimeric antibody (antibody, human IgG1, kappa, V domains shown) VH: QVQLKQSGAELVRPGASVKLSCKASGYTFTDYYINWVKQRPGQGLEWIARIYPGSGNTYYNEKFKGKATLTAEKSSSTAYMQFSSLTSEDSAVYFCACSTYYTMDYWGQGTSVTVSS VL: QIVLTQSPAIMSASLGERVTMTCTASSGVSSSYLHWYQQKPGSSPKLWIYTTSNLASGVPARFSGSGSGTSYSLTISSMEAEDAATYYCHQYHRSPYTFGGGTKLEIKR equals 1.46
